# targetEntity: Recombinant human DDR1 (aa440-876 containing a GST tag) (Homo sapiens (Human))
# Sequence (Q08345 other isoform, or with tags, fused parts or gaps): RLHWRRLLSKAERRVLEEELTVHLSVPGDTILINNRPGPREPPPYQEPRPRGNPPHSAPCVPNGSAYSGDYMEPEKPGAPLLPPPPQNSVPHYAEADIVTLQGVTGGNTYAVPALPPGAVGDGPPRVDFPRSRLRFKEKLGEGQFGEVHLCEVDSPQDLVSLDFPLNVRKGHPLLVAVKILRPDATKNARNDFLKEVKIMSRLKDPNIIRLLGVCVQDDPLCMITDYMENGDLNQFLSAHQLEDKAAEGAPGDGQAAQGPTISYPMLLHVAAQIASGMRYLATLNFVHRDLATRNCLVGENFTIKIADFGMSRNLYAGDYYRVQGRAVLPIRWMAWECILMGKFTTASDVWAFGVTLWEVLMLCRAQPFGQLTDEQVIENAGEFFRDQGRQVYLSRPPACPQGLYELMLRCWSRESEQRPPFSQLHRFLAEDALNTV
# protocol: LanthaScreen Eu Kinase Binding Assay DDR1
# conditions: Kinase Tracer 178 5 nM, at least two independent replicates

molecule: Cc1cccc2c1n(-c1ccc(-c3cncc4c3cnn4C)nc1)c(=O)n2CC(=O)N1CCO[C@H](C(F)(F)F)C1
DDR1 pIC50: A (pIC50>8)

molecule: Cc1cccc2c1n(-c1ccc(-c3cncc4c3cnn4C)cc1)c(=O)n2CC(=O)N1CCOCC1C(F)(F)F (centres unmarked)
DDR1 pIC50: A (pIC50>8)

molecule: Cn1ncc2c(-c3ccc(-n4c(=O)n(CC(=O)NCC(F)(F)F)c5cnccc54)cc3)cncc21
DDR1 pIC50: D (pIC50≤6)

molecule: Cn1ncc2c(-c3ccc(-n4c(=O)n(CC(=O)N5CCCCC5C(F)(F)F)c5ccccc54)cc3)cncc21 (centres unmarked)
DDR1 pIC50: A (pIC50>8)

molecule: Cn1ncc2c(-c3ccc(-n4c(=O)n(CC(=O)N5CC(F)(F)C5)c5ccccc54)cc3)cncc21
DDR1 pIC50: D (pIC50≤6)

molecule: Cc1cccc2c1n(-c1ccc(-c3cncc4c3cnn4C)cc1)c(=O)n2CC(=O)N1CCO[C@H](C(F)(F)F)C1
DDR1 pIC50: A (pIC50>8)

molecule: Cc1cccc2c1n(-c1ccc(-c3cncc4c3cnn4C)nc1)c(=O)n2CC(=O)NCC(F)(F)F
DDR1 pIC50: A (pIC50>8)

molecule: Cc1cccc2c1n(-c1ccc(-c3cncc4c3cnn4C)cc1)c(=O)n2CC(=O)N1CCC[C@H]1CF
DDR1 pIC50: A (pIC50>8)

molecule: C[C@@H](CC(F)(F)F)NC(=O)Cn1c(=O)n(-c2ccc(-c3cncc4c3cnn4C)cc2)c2ccccc21
DDR1 pIC50: A (pIC50>8)

molecule: Cc1cccc2c1n(-c1ccc(-c3cncc4c3cnn4C)cc1)c(=O)n2CC(=O)N1CCC[C@H]1C(F)F
DDR1 pIC50: A (pIC50>8)

molecule: Cc1cccc2c1n(-c1ccc(-c3cncc4c3cnn4C)cn1)c(=O)n2CC(=O)N[C@@H](C)C(F)(F)F [Example 57]
DDR1 pIC50: A (pIC50>8)

molecule: Cn1ncc2c(-c3ccc(-n4c(=O)n(CC(=O)NCC(F)(F)F)c5cccnc54)cc3)cncc21
DDR1 pIC50: D (pIC50≤6)

molecule: Cc1cccc2c1n(-c1ccc(-c3cncc4[nH]ncc34)cn1)c(=O)n2CC(=O)N[C@@H](C)C(F)(F)F
DDR1 pIC50: A (pIC50>8)

molecule: Cc1cccc2c1n(-c1ccc(-c3cncc4c3cnn4C)cc1)c(=O)n2CC(=O)NCC(F)(F)F
DDR1 pIC50: A (pIC50>8)

molecule: Cn1ncc2c(-c3ccc(-n4c(=O)n(CC(=O)N5CCC[C@H]5C(F)(F)F)c5ccccc54)cn3)cncc21
DDR1 pIC50: A (pIC50>8)

molecule: Cn1ncc2c(-c3ccc(-n4c(=O)n(CC(=O)NCC(F)(F)F)c5cccc(Cl)c54)cc3)cncc21
DDR1 pIC50: A (pIC50>8)

Cited source for all entries: patent US20260055102A1
